system: Chordin-like protein 2 (CHRDL2); experiment: CHRDL2 small-molecule binders, primary screen, biochemical, small-molecule microarray, 635 nm fluorescence (AID 1126); details: small-molecule microarray binding, fluorescence 635 nm; higher = more signal;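 note: printed compound slides probed with Chrdl2 protein at 4 µg/mL for 1 h at 4 C; score merges 667 nm emission intensity with signal to noise over three replicate slides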
composite z-score values for the compounds below.
Please reply with the number alone, leaving off any unit.

Example entries begin here.
Name the recorded composite z-score for NCCCCCCNC(=O)[C@@H]1C[C@@H]2C(=O)NCC(=O)N2[C@@H]1c1ccc(O)cc1 . 1.17

Name the recorded composite z-score for C=CCOC(=O)[C@@H]1[C@H]2C(=O)O[C@H](c3ccccc3)[C@H](c3ccccc3)N2[C@H](c2ccc(OCCOC(=O)[C@H]3C[C@H]4C(=O)N5CCC[C@H]5C(=O)N4[C@H]3c3ccc(O)cc3)cc2)[C@@]12C(=O)Nc1ccc(I)cc12 . 1.09

Continue with the next compound.
Name the recorded composite z-score for Cc1ccc(N2C(=O)c3ccccc3[C@@H](C(=O)NC3CC3)[C@@H]2c2ccc(CO)cc2)nc1 . -1.97

---

molecular target: E3 ubiquitin-protein ligase XIAP (Homo sapiens) (UniProt P98170); test: XIAP binders, primary screen, biophysical, small-molecule microarray, fluorescence 635 nm (AID 1181); details: small-molecule microarray binding, higher = more signal;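 note: score merges 667 nm emission and signal to noise over triplicate slides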
Sequence (P98170 whole entry, looked up): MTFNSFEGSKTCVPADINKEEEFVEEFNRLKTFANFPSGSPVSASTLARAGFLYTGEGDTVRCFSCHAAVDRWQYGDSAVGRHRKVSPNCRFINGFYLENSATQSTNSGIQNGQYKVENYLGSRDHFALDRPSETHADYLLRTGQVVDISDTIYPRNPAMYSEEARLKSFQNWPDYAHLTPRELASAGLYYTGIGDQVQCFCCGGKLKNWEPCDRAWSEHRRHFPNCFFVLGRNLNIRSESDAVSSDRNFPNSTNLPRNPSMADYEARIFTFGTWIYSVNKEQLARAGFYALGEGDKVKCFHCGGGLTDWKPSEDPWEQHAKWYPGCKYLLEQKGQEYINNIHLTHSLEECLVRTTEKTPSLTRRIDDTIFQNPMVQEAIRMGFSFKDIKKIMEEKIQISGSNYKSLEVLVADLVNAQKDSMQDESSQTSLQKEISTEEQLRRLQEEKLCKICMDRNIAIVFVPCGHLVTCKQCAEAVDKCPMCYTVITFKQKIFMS
Decision: composite z-score >= -0.05 yields yes, all other cases yield no.

Use these answered entries as a reference point.
Could you please find out whether CN1C(=O)C2C=CC(C(O)C#Cc3ccccc3)N(N3CCCCC3)C2C1=O (configuration not stated) has composite z-score that meets -0.05 or exceeds it? yes

Could you please find out whether C=CCC(OC(C)=O)[C@@H]1[C@@H](N(Cc2ccc(-c3cccc(C(F)(F)F)c3)o2)C(=O)c2ccc(C)cc2)c2cc(OCCCO)ccc2N1C(=O)Cc1ccc2ccccc2c1 (some centres not stated) has composite z-score that meets -0.05 or exceeds it? yes

Could you please find out whether CCOC(=O)[C@H]1C/C=C/C[C@H](C(=O)OCC)C(=O)O[C@H]2[C@@H](OC)O[C@H](CO)[C@@H](OC(=O)c3c(OC)cccc3OC)[C@@H]2OC1=O has composite z-score that meets -0.05 or exceeds it? no

Could you please find out whether COC(=O)[C@@]1(Cc2ccc(OC)cc2)[C@H]2c3cc(C(=O)N4CCCC4)n(Cc4ccc(C)c(F)c4F)c3C[C@H]2CN1C(=O)c1ccccc1 has composite z-score that meets -0.05 or exceeds it? yes

Could you please find out whether CC(C)N1C(=O)c2ccccc2[C@](C)(C(=O)NCCN2CCOCC2)[C@@H]1c1ccc(CO)cc1 has composite z-score that meets -0.05 or exceeds it? yes

Others:
Could you please find out whether CN1C(=O)C2C=CC(C(O)C3CC=CCC3)N(N(c3ccccc3)c3ccccc3)C2C1=O (configuration not stated) has composite z-score that meets -0.05 or exceeds it? no

Could you please find out whether C[N+](C)(C)CCCCCCNC(=O)[C@@H]1C[C@@H]2C(=O)N[C@@H](Cc3ccccc3)C(=O)N2[C@@H]1c1cccc(OCCO)c1 has composite z-score that meets -0.05 or exceeds it? yes

---

experiment: E. coli DRC41 culture turbidity changes, primary screen, E. coli filamentation inducer project, strain DRC41, OD650, 48 h (AID 1152);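 note: E. coli MC1000 strain DRC41 lacking acrAB efflux pump and sulA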; conditions: E. coli DRC41 (acrAB sulA), higher = more signal, called active from +8 up or from −8 down
Decision: z-score >= -0.5 yields T, all other cases yield F.

Use these answered entries as a reference point.
Could you please find out whether COc1ccc(CCNC(=O)[C@@]2(Sc3ccc(C)cc3)CC(=O)N(C(C)C)[C@@H]2c2ccc(CO)cc2I)cc1 has z-score that meets -0.5 or exceeds it? T

Could you please find out whether O=C(c1ccccc1)N1C(=O)[C@@]2(Cc3ccccc31)N=C(c1ccc(OCCCO)cc1)O[C@H]2c1ccccc1 has z-score that meets -0.5 or exceeds it? F

Could you please find out whether Cc1ccc(N2C(=O)c3ccccc3[C@@H](C(=O)NC3CC3)[C@@H]2c2ccc(CO)cc2)nc1 has z-score that meets -0.5 or exceeds it? T

Could you please find out whether COCC(=C=CC[C@@H](O)c1cccc(OCCO)c1)C[C@@H](O)c1ccccn1 has z-score that meets -0.5 or exceeds it? T

Could you please find out whether COCCOC(=O)N1C(=O)[C@@]2(c3cc(C#Cc4ccc(OC)cc4)ccc31)[C@H](c1ccc(O)cc1)N1[C@H](c3ccccc3)[C@H](c3ccccc3)OC(=O)[C@H]1[C@@H]2C(=O)N1CCc2cc(OC)c(OC)cc2C1 has z-score that meets -0.5 or exceeds it? T

Please turn your attention to the following entry.
Could you please find out whether C=CCC(OC(C)=O)[C@@H]1[C@@H](N(Cc2ccc(-c3ccccc3)cc2)C(=O)c2ccc(-c3ccccc3)cc2)c2cc(OCCCO)ccc2N1C(=O)Cc1ccc2ccccc2c1 (some centres not stated) has z-score that meets -0.5 or exceeds it? F

---

z-score values for the compounds below.
assay: PSAC antagonists in infected red cells, primary screen, cell-based, P. falciparum Indochina, OD700, 2 h (AID 1155);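 note: lysis reports solute entry through the parasite surface anion channel PSAC; channel blockers reduce lysis of infected cells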; details: P. falciparum Indochina infected erythrocytes, osmotic lysis OD700; higher = more signal, called active from +8 up or from −8 down
Activity calls are given as the source filed them.

Example entries begin here.
Name the recorded z-score for CCCC[C@@H]1C[C@H]1[C@@H](NC(=O)C(C)(C)C)c1ccc(C(F)(F)F)cc1 . 0.367 (inactive)

Name the recorded z-score for CN(C)CCCCCCNC(=O)[C@@H]1C[C@@H]2C(=O)N[C@@H](Cc3ccccc3)C(=O)N2[C@@H]1c1ccc(O)cc1 . 0.596 (inactive)

Name the recorded z-score for CCCCCN1CC=CC23O[C@@H]4/C=C\CCC(C)OC(=O)C4[C@H]2C(=O)N(C(C)CO)[C@@H]3C1=O (stereo partly drawn) . -0.356 (inactive)

Name the recorded z-score for CC1CC/C=C\[C@H]2OC34C=CCN(C(C)(C)C)C(=O)[C@H]3N(C(C)CO)C(=O)[C@@H]4C2C(=O)O1 (stereo partly drawn) . 0.576 (inactive)

Name the recorded z-score for C=C(CCCC)/C(=C/C[C@H](OC(=O)c1ccncc1)c1ccccc1OCCO)c1cnc2ccccc2c1 . 4.64 (inactive)

Name the recorded z-score for N#Cc1ccc(NN2C(C(O)C(c3ccccc3)c3ccccc3)C=CC3C(=O)N(c4ccccc4)C(=O)C32)cc1 (stereo not drawn) . 0.96 (inactive)

Name the recorded z-score for CC1(C)C2C=C(C(O)C3C=CC4C(=O)NC(=O)C4N3Nc3ccc(Cl)cc3Cl)C[C@@H]1C2 (stereo partly drawn) . 0.916 (inactive)

Others:
Name the recorded z-score for CCCC[C@H]1OB(O)C[C@H]2C1=C(COC)C[C@H]1C(=O)N(C)C(=O)[C@H]12 . 0.0082 (inactive)

---

biological target: Epidermal growth factor receptor (Homo sapiens); assay: EGFR binders on small-molecule microarrays, primary screen, biochemical, small-molecule microarray, 635 nm fluorescence (AID 1104); conditions: EGFR binding, higher = more signal;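 note: score merges 667 nm emission intensity with spot signal to noise over triplicate slides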
composite z-score values for the compounds below.
Please reply with the number alone, leaving off any unit.

Example entries begin here.
Name the recorded composite z-score for CN(C)CCCC[C@@H]1NC(=O)[C@@H]2C[C@H](C(=O)NCCCCCCN)[C@H](c3cccc(OCCO)c3)N2C1=O . 0.0249

Name the recorded composite z-score for CC(C)OC(=O)C=C1C[C@@H](c2ccccn2)O[C@@H](c2ccccn2)O1 . 0.891

Continue with the next compound.
Name the recorded composite z-score for COc1ccc(CCNC(=O)[C@@H]2c3ccccc3C(=O)N(Cc3ccccc3Cl)[C@H]2c2ccc(CO)cc2)cc1 . -0.0373

---

biological target: Dihydroorotate dehydrogenase (quinone), mitochondrial (Plasmodium falciparum (isolate 3D7)) (UniProt Q08210); assay: PfDHODH enzyme inhibitors, primary screen, biochemical, C-terminal His tag, absorbance 600 nm (AID 1175); conditions: DCIP absorbance 600 nm, higher = more signal, called active from +8 up or from −8 down;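 note: recombinant parasite enzyme with a five histidine tag at its C terminus; test concentration not given here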
Sequence (Q08210 whole entry, looked up): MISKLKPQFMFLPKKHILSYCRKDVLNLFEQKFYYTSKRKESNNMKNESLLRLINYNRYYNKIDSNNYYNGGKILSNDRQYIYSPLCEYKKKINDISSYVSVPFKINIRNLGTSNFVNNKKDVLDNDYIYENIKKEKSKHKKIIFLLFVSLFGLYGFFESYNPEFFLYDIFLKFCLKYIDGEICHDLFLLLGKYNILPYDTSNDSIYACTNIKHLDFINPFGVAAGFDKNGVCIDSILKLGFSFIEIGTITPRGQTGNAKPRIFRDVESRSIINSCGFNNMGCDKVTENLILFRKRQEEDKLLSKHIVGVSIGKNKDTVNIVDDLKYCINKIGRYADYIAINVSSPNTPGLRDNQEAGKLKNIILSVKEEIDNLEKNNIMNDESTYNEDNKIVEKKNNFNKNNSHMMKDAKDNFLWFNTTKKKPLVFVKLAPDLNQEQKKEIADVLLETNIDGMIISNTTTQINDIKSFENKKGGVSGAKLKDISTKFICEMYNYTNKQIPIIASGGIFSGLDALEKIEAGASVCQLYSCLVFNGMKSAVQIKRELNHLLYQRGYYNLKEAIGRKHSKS
Decision: composite z-score >= -0.3 yields fulfilled, all other cases yield not fulfilled.

Use these answered entries as a reference point.
Could you please find out whether NC(=O)N1C(=O)C2C(C1=O)C1C=C(c3ccc(CO)cc3)C2C(c2cccs2)N1Cc1cccc(OC(F)(F)F)c1 (centres undefined) has composite z-score that meets -0.3 or exceeds it? not fulfilled

Could you please find out whether O=C1NC(=O)C2C1C=CC(C(O)c1cccs1)N2Nc1ccc(Cl)cc1Cl (centres undefined) has composite z-score that meets -0.3 or exceeds it? fulfilled

Could you please find out whether CCCCC(CC)C(O)C1C=CC2C(=O)N(Cc3ccccc3)C(=O)C2N1n1cnnc1 (centres undefined) has composite z-score that meets -0.3 or exceeds it? not fulfilled

Others:
Could you please find out whether Cc1ccc([C@@H]2C[C@@H](Sc3ccccc3)[C@H](C(=O)O)CN2S(=O)(=O)c2ccc(C)cc2)cc1 has composite z-score that meets -0.3 or exceeds it? not fulfilled

Could you please find out whether C=C(CCCC)/C(=C/C[C@H](OC(C)=O)c1ccccc1OCCO)c1cc(C(=O)OC)ccc1OC has composite z-score that meets -0.3 or exceeds it? not fulfilled

Could you please find out whether CN(C)CCCC[C@@H]1NC(=O)[C@@H]2C[C@H](C(=O)NCCCCCCN)[C@H](c3cccc(OCCO)c3)N2C1=O has composite z-score that meets -0.3 or exceeds it? not fulfilled

Could you please find out whether Cc1ccc(S[C@]2(C(=O)O)CC(=O)N(C(C)C)[C@@H]2c2ccc(CO)cc2I)cc1 has composite z-score that meets -0.3 or exceeds it? not fulfilled
